biological target: ZBTB21 (UniProt Q9ULJ3); test: log2 fold change, soluble protein after heating vs DMSO (PISA); higher = thermal stabilisation; K562 cells, 10 uM, 30 min; active = over 0.2 and 3.5 SD of the protein, either way, in both replicates (recomputed)
Sequence (Q9ULJ3 whole entry, looked up): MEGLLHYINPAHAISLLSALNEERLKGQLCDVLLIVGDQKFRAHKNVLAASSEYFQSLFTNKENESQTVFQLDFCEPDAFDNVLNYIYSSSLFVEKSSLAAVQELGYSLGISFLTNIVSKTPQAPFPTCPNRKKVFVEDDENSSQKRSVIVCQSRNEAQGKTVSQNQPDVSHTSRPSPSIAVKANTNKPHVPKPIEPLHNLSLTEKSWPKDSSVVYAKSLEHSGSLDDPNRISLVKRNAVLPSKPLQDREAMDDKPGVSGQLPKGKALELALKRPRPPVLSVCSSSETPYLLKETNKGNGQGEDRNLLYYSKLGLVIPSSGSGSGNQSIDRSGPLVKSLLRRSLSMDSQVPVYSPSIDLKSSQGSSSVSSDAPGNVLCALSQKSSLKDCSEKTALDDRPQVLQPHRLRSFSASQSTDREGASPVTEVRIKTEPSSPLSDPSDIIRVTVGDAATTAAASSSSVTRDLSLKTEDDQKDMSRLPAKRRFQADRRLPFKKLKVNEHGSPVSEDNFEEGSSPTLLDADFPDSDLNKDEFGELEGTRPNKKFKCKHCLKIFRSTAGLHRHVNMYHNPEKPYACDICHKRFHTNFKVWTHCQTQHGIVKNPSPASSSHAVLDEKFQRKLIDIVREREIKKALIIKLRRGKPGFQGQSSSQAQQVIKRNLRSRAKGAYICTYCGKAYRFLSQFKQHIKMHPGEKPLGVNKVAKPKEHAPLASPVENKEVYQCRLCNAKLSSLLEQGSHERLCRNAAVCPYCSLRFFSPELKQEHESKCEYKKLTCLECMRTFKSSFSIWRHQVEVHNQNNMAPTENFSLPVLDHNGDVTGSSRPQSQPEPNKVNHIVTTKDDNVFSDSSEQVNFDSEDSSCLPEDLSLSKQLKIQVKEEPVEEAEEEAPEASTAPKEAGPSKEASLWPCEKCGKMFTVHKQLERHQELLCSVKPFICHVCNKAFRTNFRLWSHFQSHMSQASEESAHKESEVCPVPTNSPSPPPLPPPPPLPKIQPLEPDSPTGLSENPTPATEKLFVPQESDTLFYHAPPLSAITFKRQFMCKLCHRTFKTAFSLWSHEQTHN
About 7,900 targets were measured; listed, in parts, are those with a hit and a random draw of the rest. About 0.6% of all pairs of compound and target were hits.
Measured log2 fold change, listed per entry for reference.
// no unit, no text: just the number

Check out these entries, answers already filled in.
1. COc1cc(C(=O)O)ccc1NC(=O)[C@@H]1N[C@@H](CC(C)(C)C)[C@](C#N)(c2ccc(Cl)cc2F)[C@H]1c1cccc(Cl)c1F	0.026
2. O=C(Nc1cccc(Nc2ncc(Br)c(NCCc3cnc[nH]3)n2)c1)N1CCCC1	0.107
3. CN1CCC(CNc2ccc3ncc(-c4cccc(OC(F)(F)F)c4)n3n2)CC1	-0.149

# context switch: different compound, same log2 fold change
Lookup: Need log2 fold change, item O=C1NC(=NCc2cccs2)S/C1=C\c1ccc2ncccc2c1
Found: -0.024

====

target: YWHAQ (UniProt P27348); test: log2 fold change, soluble protein after heating vs DMSO (PISA); higher = thermal stabilisation; K562 cells, 10 uM, 30 min; active = over 0.2 and 3.5 SD of the protein, either way, in both replicates (recomputed)
Sequence (P27348 whole entry, looked up): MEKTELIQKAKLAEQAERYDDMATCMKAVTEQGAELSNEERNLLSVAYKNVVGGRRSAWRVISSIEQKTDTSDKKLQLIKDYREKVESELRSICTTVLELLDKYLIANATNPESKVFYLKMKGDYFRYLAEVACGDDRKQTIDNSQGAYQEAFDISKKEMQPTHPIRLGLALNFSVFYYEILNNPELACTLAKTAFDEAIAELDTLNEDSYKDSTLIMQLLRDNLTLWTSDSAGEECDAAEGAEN
The full data set covers some 7,900 targets. This sample favours those with a hit. About 0.6% of all pairs of compound and target were hits.
Rule: Condition met for log2 fold change not less than 0.007, Condition not met for anything less.

1) Cc1ccc(C(=O)N(CCCN)[C@@H](c2nc3cc(Cl)ccc3c(=O)n2Cc2ccccc2)C(C)C)cc1	Condition met
2) COc1cc(C(=O)O)ccc1NC(=O)[C@@H]1N[C@@H](CC(C)(C)C)[C@](C#N)(c2ccc(Cl)cc2F)[C@H]1c1cccc(Cl)c1F	Condition not met
3) Fc1ccc(Cl)cc1-c1nc(Nc2ccncc2)c2nccnc2n1	Condition met

Lookup: Textbook exercise: given the entry COc1ccc(Cn2ccc3ccc(C(=O)NO)cc32)cc1 , state whether its log2 fold change is greater than or equal to 0.007.
Found: Condition met

Lookup: Textbook exercise: given the entry CN(CCOc1ccc(C[C@@H]2SC(=O)NC2=O)cc1)c1ccccn1 (racemic) , state whether its log2 fold change is greater than or equal to 0.007.
Found: Condition met

====

target: ZNF579 (UniProt Q8NAF0); assay: log2 fold change, soluble protein after heating vs DMSO (PISA); higher = thermal stabilisation; K562 cells, 10 uM, 30 min; active = over 0.2 and 3.5 SD of the protein, either way, in both replicates (recomputed)
Sequence (Q8NAF0 whole entry, looked up): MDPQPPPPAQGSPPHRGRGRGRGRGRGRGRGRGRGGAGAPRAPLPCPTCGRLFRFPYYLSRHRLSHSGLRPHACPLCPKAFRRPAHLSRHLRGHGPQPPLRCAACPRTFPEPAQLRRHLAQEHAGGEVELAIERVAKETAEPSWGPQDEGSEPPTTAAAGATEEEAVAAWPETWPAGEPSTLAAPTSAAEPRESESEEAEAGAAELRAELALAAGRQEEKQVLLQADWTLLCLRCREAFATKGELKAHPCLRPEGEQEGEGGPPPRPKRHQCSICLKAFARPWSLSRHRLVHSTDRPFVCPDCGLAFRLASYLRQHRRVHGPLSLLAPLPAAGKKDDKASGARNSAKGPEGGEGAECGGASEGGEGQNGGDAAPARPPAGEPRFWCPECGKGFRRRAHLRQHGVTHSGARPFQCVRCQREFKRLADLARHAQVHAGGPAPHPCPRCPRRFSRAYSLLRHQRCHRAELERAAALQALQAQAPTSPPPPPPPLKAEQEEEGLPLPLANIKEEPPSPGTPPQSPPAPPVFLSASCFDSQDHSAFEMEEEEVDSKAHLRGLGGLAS
Targets with a hit are over-represented here; the source holds about 7,900 in all. About 0.6% of all pairs of compound and target were hits.
experimentalReadout: log2 fold change
// no unit, no text: just the number

Check out these entries, answers already filled in.
1) CN1CCC(CNc2ccc3ncc(-c4cccc(OC(F)(F)F)c4)n3n2)CC1	0.103
2) CN(CCOc1ccc(C[C@@H]2SC(=O)NC2=O)cc1)c1ccccn1 (racemic) [rosiglitazone]	-0.021
3) CON(C)C(=O)N1N=C(c2cc(F)ccc2F)S[C@@]1(CCCN)c1ccccc1 [filanesib]	0.181
4) Cc1ccc(-n2nc(C(C)(C)C)cc2NC(=O)Nc2ccc(OCCN3CCOCC3)c3ccccc23)cc1 [doramapimod]	0.11

Lookup: Recall the recorded log2 fold change for COc1cc(C(=O)O)ccc1NC(=O)[C@@H]1N[C@@H](CC(C)(C)C)[C@](C#N)(c2ccc(Cl)cc2F)[C@H]1c1cccc(Cl)c1F [idasanutlin] with ZNF579 (UniProt Q8NAF0) and state it.
Found: -0.116

Lookup: Recall the recorded log2 fold change for COc1cccc2cc(-c3nc([C@H]4CC[C@H](C(=O)O)CC4)n4ncnc(N)c34)[nH]c12 with ZNF579 (UniProt Q8NAF0) and state it.
Found: -0.078

Lookup: Recall the recorded log2 fold change for CC(C)C[C@@H](C=O)NC(=O)[C@H](CC(C)C)NC(=O)[C@H](CC(C)C)NC(=O)OCc1ccccc1 with ZNF579 (UniProt Q8NAF0) and state it.
Found: -0.271

Lookup: Recall the recorded log2 fold change for O=C1NC(=O)/C(=C\c2ccc3nccnc3c2)S1 with ZNF579 (UniProt Q8NAF0) and state it.
Found: -0.07
